meta.source: patent US20140087995A1

Consider the following binders; for each one, report its IC50.
Biological target: T1, rat calcitonin receptor (rat, UniProt P32214 25-516)
T1 construct: whole, on cells; membranes of transiently transfected BHK tk'ts 13 cells (Assay VIII); also called rCTR; rat calcitonin (a) receptor
T1 sequence (looked up): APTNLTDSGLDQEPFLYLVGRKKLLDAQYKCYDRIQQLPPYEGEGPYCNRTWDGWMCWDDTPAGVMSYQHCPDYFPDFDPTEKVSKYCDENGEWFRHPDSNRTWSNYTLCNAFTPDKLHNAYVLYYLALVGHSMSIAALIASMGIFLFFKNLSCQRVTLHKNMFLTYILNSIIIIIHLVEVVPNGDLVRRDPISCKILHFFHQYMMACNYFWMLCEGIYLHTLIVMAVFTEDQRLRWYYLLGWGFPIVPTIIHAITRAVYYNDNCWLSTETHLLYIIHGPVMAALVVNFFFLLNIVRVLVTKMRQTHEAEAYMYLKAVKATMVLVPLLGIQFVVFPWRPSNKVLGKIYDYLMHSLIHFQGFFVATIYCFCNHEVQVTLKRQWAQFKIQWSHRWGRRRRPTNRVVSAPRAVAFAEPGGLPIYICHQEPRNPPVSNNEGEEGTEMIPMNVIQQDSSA
Test: SPA competition with 125I-calcitonin, membranes of BHK cells with rat calcitonin receptor (Assay VIII)
Numbered stars: 1 amine (or outer) side, 2 acyl side, 3 side chain; on linkers, the order of the positions; unused ones are H or OH. Bridge positions count the residues as written; N and C are the ends. Side chains are listed from the residue outwards. Ends that are not written are not given here. * marks the point of attachment. C20 diacid = O=C(O)CCCCCCCCCCCCCCCCCCC(=O)*; γGlu = O=C(O)[C@H](CCC(=O)[*:2])N[*:1]; AEEA = NCCOCCOCC(=O)O
Dear colleague, please return just the value in nM, with no unit written.

Exercise: I have this binder here, {C20 diacid-γGlu}-KCNTATCATQRLAEFLRHSSPNFGAIPSSTNVGSETY-NH2 (disulfide 2-7 (inferred), analogue of human amylin; the name is printed with N^α1 twice; also called compound 22) , and I need its recorded IC50.
Solution: 62.5

Exercise: Which IC50 value belongs to K([AEEA-γGlu-C20 diacid])CNTATCATQRLANFLRHSSPNFGAIPSSTNVGSNTY-NH2 (disulfide 2-7 (inferred), analogue of human amylin; also called compound 41) ?
Solution: 74.1

Exercise: Recorded IC50 of K([AEEA-AEEA-γGlu-C20 diacid])CNTATCATQRLANFLRHSSPNFGAIPSSTNVGSETY-NH2 (disulfide 2-7 (inferred), analogue of human amylin; also called compound 25) , please.
Solution: 131

Exercise: Give the measured IC50 of K([γGlu-γGlu-C20 diacid])CNTATCATQRLADFLRHSSPNFGAIPSSTNVGSDTY-NH2 (disulfide 2-7 (inferred), analogue of human amylin; also called compound 2) .
Solution: 108

Exercise: Item K([γGlu-C20 diacid])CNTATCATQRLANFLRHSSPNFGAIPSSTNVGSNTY-NH2 (disulfide 2-7 (inferred), analogue of human amylin; also called compound 48) [N^ε1-[(4S)-4-carboxy-4-(19-carboxynonadecanoylamino)butanoyl]-[Arg17,Pro21,Pro27]-h-amylin] has what recorded IC50?
Solution: 112

Exercise: For K([AEEA-γGlu-C20 diacid])CNTATCATQRLANFLRHSSPNFGAIPSSTNVGSRTY-NH2 (disulfide 2-7 (inferred), analogue of human amylin; also called compound 38) , what is its reported IC50?
Solution: 38

Exercise: Which IC50 value is on record for K([γGlu-C20 diacid])CNTATCATQRLAEFLRHSSPNFGAIPSSTNVGSRTY-NH2 (disulfide 2-7 (inferred), analogue of human amylin; also called compound 51) ?
Solution: 62

Exercise: Value lookup for IC50; key = {C20 diacid-γGlu}-KCNTATCATQRLAHFLRHSSPNFGAIPSSTNVGSETY-NH2 (disulfide 2-7 (inferred), analogue of human amylin; also called compound 30)
Solution: 114

Exercise: Recorded IC50 of {C20 diacid-γGlu}-KCNTATCATQRLAEFLRHSSPNFGAIPSSTNVGKNTY-NH2 (disulfide 2-7 (inferred), analogue of human amylin; also called compound 36) , please.
Solution: 60.1
